study.system: Recombinant human MMP-1 enzyme (Homo sapiens, UniProt P03956)
Construct: purchased
Sequence (P03956 100-469): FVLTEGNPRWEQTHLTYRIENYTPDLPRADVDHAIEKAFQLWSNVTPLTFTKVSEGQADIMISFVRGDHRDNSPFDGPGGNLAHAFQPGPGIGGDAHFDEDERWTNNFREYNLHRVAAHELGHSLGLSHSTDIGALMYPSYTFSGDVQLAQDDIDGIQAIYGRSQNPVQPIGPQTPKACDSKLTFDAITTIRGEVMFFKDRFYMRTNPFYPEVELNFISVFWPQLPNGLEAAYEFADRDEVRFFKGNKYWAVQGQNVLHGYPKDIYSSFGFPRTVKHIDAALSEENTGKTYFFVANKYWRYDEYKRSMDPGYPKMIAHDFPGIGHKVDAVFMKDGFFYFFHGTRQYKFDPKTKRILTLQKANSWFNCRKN
run.description: In vitro inhibition of MMP-1 activity
Assay type: biochemical
protocol.conditions: selected standards, Table 4; read-out: inhibition expressed as IC50 against MMP-1 (converted)
measurement.type: IC50 (µM)

* COc1cc2ccc(=O)oc2cc1O | 78.1

P: COc1cc2ccc(=O)oc2cc1OC
Q: COc1cc(/C=C/C(=O)O)ccc1O
// task: argmin of IC50 over [ P , Q ] Lab log: write the label of the selected item as the result.
P
(P: 72.7 µM, Q: 144 µM)

----------
study.system: Recombinant human MMP-1 enzyme (Homo sapiens)
Construct: purchased
run.description: In vitro inhibition of MMP-1 activity
Type: biochemical
measurement.type: IC50 (µM)
# output: bare number, implied unit µM

Tell me the measured IC50 of "O=c1c(O[C@@H]2O[C@H](CO)[C@@H](O)[C@H](O)[C@H]2O)c(-c2ccc(O)c(O)c2)oc2cc(O)cc(O)c12" , please.
49.5
